biological target: T1, ZIKV (prM80E) with a C-terminal myc-myc-hexahistidine tag (Zika virus, UniProt A0A024B7W1 104-694); experiment: SPR, mAb captured, 37C
T1 construct: also called ZIKV (prM80E)-mmH; ZIKV-mmH
hey, just use class 1 if measured t½ pH 7.4/t½ pH 5.5 is less than 2, otherwise class 0

BINDER	CLASS
H4H25587P (antibody, V domains shown) VH: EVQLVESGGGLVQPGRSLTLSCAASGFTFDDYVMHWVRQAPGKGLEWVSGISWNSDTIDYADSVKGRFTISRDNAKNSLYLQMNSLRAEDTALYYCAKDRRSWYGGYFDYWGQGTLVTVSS VL: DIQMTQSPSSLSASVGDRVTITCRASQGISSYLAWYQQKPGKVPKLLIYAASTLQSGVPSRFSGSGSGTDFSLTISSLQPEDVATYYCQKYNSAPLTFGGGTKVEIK	class 1
H4H25591P (antibody, V domains shown) VH: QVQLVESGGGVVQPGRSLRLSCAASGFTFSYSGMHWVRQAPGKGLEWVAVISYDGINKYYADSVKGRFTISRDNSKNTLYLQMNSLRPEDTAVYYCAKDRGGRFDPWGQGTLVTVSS VL: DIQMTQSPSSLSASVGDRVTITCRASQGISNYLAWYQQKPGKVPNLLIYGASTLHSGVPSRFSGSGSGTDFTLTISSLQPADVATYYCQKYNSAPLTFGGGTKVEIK	class 0
H4H25566P (antibody, V domains shown) VH: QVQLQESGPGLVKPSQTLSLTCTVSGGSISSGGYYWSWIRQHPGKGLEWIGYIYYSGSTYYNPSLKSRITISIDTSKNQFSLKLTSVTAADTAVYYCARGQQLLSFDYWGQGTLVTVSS VL: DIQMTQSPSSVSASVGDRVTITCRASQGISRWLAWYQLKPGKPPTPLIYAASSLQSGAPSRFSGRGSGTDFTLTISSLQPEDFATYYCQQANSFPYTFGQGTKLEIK	class 0
H4H25640P (antibody, V domains shown) VH: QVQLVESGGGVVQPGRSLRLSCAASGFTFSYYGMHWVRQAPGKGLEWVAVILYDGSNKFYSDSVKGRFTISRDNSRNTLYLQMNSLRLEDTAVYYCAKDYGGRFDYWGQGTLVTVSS VL: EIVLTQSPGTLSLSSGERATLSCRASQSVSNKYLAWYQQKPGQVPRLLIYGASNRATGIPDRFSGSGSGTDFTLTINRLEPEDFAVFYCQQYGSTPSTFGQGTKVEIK	class 0
H4H25617P (antibody, V domains shown) VH: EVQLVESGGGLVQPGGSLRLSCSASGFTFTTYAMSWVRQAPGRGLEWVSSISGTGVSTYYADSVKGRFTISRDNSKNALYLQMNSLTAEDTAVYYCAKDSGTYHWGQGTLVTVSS VL: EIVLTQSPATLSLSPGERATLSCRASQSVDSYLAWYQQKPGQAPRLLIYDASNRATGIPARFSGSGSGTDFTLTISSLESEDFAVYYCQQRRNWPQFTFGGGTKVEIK	class 1
